Recorded values, source patent US20170218055A1.

# target system: T1, AKKAA immunoglobulin binding domain of SpAKKAA (Staphylococcus aureus, UniProt A0A0H3K686 156-207)
# T1 construct: the construct is said to span residues 118-175 of mature SpA and its limits may differ from the entry; not shown: N-terminal six histidyl tag (pET15b)
# assay details: ELISA, antigen-coated plate, mAb titrated
Listed below: Ka values for each entry.
All answers are understood in M⁻¹, so give the number only.

Check out these entries, answers already filled in.
1) mAb 5A10 (antibody, V domains shown, Mouse IgG1 hybridoma mAb raised against SpAKKAA; also called 5A10-HRP; HRP-5A10) VH: EVKLVESGGGLVKPGGSLKLSCAASGFAFSNYDMSWVRQTPEKRLEWVATISSGGTYPYYPDSVKGRFTISRDNAKNTLYLQLSSLRSEDTALYYCARGGFLITTRDYYAMDYWGQGTSVTVSS VL: TIVLTQSPAIMSASPGEKVTMTCSASSSVSYMYWYQQKPGSSPRLLIYDTSNLASGVPVRFSGSGSGTSYSLTISRMEAEDAATYYCQQWSSYPPTFGGGTKLEIK = 8.08e+09
2) mAb 3D11 (antibody, V domains shown, Mouse IgG2b hybridoma mAb raised against SpAKKAA; also called 3D11-HRP; HRP-3D11) VH: QSGPELMKPGASVKISCKASGYSFTSYYMHWVKQSHGKSLEWIGYIDPFNGGTSYNQKFKGKATLTVDKSSSTAYMHLSSLTSEDSAVYYCARYGYDGTFYAMDYWGQGTSVTVSS VL: RIVLTQSPAITAASLGQKVTITCSASSSVSYMHWYQQKSGTSPKPWIYEISKLASGVPARFSGSGSGTSYSLTISSMEAEDAAIYYCQQWSYPFTFGSGTKLEIK = 8.7e+08
3) mAb 8E2 (antibody, V domains shown, Mouse IgG1 hybridoma mAb) VH: KVQLQQSGAGLVKPGASVKLSCKASGYTFTEYSIHWVKQSSGQGLEWIGWFYPGSGYIKYNEKFKDKATLTADKSSSTVYMEFSRLTSEDSAVYFCARHGYGNYVGYAMDYWGQGTSVTVSS VL: DIQMTQSPASLSASVGETVTITCRASEIIYSYLAWYQQKQGKSPQLLVYFAKTLAEGVPSRFSGSGSGTQFSLKINSLQPEDFGIYYCQHHYGTPYTFGGGTKLEIK = 1.52e+09
4) mAb 2F2 (antibody, V domains shown, Mouse IgG2b hybridoma mAb) VH: VKLVESGGDLVKPGGSLKLSCAASRFTFSSYVMSWVRQTPEKRLEWVASIGSGGTTYYPDTVKGRFTISRDNARNILYLQMSSLRSDDTAMYYCTRGRGYGFAWYFDVWGAGTTVTVSS VL: TIVLTQSPAIMSASPGEKVTMTCSASSSVSYMYWYQQKPGSSPRLLIYDTSNLASGVPVRFSGSGSGTSYSLTISRMEAEDAATYYCQQWSSYPPTFGGGTKLEIK = 1.37e+09
5) mAb 7E2 (antibody, V domains shown, Mouse IgG1 hybridoma mAb) VH: QIQLVQSGPELKKPGETVKISCKASGYTFTDYSVHWVKQAPGKGLKWMAWINTATGEPTFADDFKGRFAFSLETSARTAYLQINNLKNEDTATYFCAPQLTGPFAYWGHGTLVTVSA VL: DIQMTQSPASLSASVGETVTITCRASENIHNYLAWYQQKQGKSPQLLVYNAKTLTDGVPSRFSGSGSGTQFSLKINSLQAGDFGSYYCQHSWSIPYTFGGGTRLQIR = 3.6e+08

Reported Ka of mAb 3A6 (antibody, V domains shown, Mouse IgG1 hybridoma mAb) VH: QIQLVQSGPELKKPGETVKISCKASGYNFTDYSMHWVKQAPGKGLKWVGWINTETAESTYADDFKGRFAFSLETSASTAYLQINSLKDEDTATFFCAHFDCWGQGTTLTVSS VL: DVVMTQISLSLPVTLGDQASISCRASQSLVHSNGNTYLNWYLQKPGQSPKLLIHKVSNRFSGVPDRFSGSGSGTDFTLKISRVEAEDLGVYFCSQITYVPWTFGGGTKLEIK : 2.05e+09
